Could you please report measured Concentration of nitrate nitrogen for the items listed next?
Tested on: Nitrosomonas spp.
runDescription: Nitrification of ammonium in soil incubated at 25° C. (ammonium recovery, nitrate accumulation)
conditionSet: 0.50 ppm; week 16; soil 25° C.; 200 ppm N
Experimental: In these evaluations, one hundred grams (100 g) of oven dry, silt loam field soil with low residual nitrogen is added to a 6×12 cm screw-capped glass jar for each sampling date to provide an optimum environment for nitrification. Two replicates of each treatment-sampling date are established. The soil is adjusted to 50% water saturation with an aqueous solution of ammonium sulfate at 200 ppm N and the chemical to be tested as a nitrification inhibitor at rates of from 0.10 to 0.50 ppm. […]
Structures can show the parent of a compound that is named as a salt.
Numbers only; they are read as PPM.

Q) Supply reported Concentration of nitrate nitrogen belonging to this compound: Clc1cccc(C(Cl)(Cl)Cl)n1
A) 148

Q) Supply reported Concentration of nitrate nitrogen belonging to this compound: CC[C@@]1([C@@H]2O[C@@H]([C@H]3O[C@@](O)(CO)[C@H](C)C[C@@H]3C)C[C@@H]2C)CC[C@H]([C@]2(C)CC[C@]3(C[C@H](O)[C@@H](C)[C@@H]([C@@H](C)[C@@H](OC)[C@H](C)C(=O)O)O3)O2)O1 [Monensin sodium salt, Monensin]
A) 121

Q) Supply reported Concentration of nitrate nitrogen belonging to this compound: CO[C@@H]1[C@@H](OC)[C@H](C)[C@@](O)(CC(=O)O)O[C@H]1[C@H](C)[C@H]1O[C@@]2(CC[C@@](C)([C@H]3CC[C@@](C)([C@@H]4O[C@@H]([C@H]5O[C@](C)(O)[C@H](C)C[C@@H]5C)C[C@@H]4O[C@@H]4C[C@H](OC)[C@@H](OC)[C@H](C)O4)O3)O2)C[C@H](O)[C@H]1C [Maduramicin monoammonium salt, Maduramicin]
A) 28

Q) Supply reported Concentration of nitrate nitrogen belonging to this compound: CC[C@@H](C(=O)[C@@H](C)[C@@H](O)[C@H](C)CCc1ccc(C)c(O)c1C(=O)O)[C@H]1O[C@](CC)([C@H]2CC[C@](O)(CC)[C@H](C)O2)C[C@@H]1C [Lasalocid sodium salt, Lasalocid]
A) 52

Q) Supply reported Concentration of nitrate nitrogen belonging to this compound: CC[C@@H](C(=O)[C@@H](C)[C@@H](O)[C@H](C)[C@@H]1O[C@@H]([C@@H](CC)C(=O)O)CC[C@@H]1C)[C@H]1O[C@]2(C=C[C@@H](O)[C@]3(CC[C@@](C)([C@H]4CC[C@](O)(CC)[C@H](C)O4)O3)O2)[C@H](C)C[C@@H]1C [Salinomycin monosodium salt, Salinomycin]
A) 28
